- TEST_SYSTEM: Glutamate carboxypeptidase 2 (Homo sapiens, UniProt Q04609)
- Sequence (Q04609 whole entry, the tested form may be a part): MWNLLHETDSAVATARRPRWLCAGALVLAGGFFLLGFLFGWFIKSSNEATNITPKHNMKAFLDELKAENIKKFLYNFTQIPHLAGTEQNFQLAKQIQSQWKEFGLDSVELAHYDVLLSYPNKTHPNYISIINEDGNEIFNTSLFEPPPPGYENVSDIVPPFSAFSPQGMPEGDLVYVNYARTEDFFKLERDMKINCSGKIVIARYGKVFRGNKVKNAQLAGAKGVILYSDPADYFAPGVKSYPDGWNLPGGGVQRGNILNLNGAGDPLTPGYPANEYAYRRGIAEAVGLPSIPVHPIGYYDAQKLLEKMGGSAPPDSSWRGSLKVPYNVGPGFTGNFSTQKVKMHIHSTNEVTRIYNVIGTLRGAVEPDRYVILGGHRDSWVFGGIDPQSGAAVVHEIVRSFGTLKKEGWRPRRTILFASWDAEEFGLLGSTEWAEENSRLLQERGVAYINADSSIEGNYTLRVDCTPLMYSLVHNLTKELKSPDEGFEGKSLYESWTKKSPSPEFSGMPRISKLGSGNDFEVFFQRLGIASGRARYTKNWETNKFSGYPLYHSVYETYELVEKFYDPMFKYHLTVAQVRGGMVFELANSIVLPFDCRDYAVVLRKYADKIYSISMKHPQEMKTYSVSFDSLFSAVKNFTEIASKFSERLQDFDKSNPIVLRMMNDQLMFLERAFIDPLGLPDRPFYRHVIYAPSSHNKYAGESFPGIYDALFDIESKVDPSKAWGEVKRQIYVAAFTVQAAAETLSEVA
- PROCEDURE_DETAILS: Inhibition of human recombinant N-terminal Avi-tagged glutamate carboxypeptidase 2 extracellular domain (44 to 750 amino acids) using pteroyl-di-L-glutamate substrate by HPLC method
pKi: −log10 of the molar value.
VALUE_KIND: pKi

MOLECULAR_STRING: O=C(O)CC[C@H](NC(=O)N[C@@H](CCCCNC(=O)Cc1ccccc1OCCNC(=O)CCOCCOCCOCCOCCOCCOCCOCCOCCOCCOCCOCCOCCNC(=O)CCCC[C@H]1SC[C@H]2NC(=O)N[C@H]21)C(=O)O)C(=O)O
TEST_SYSTEM: Glutamate carboxypeptidase 2 (Homo sapiens, UniProt Q04609)
TEST_RESULT: 7.55
--
MOLECULAR_STRING: O=C(O)CC[C@H](NC(=O)N[C@@H](CCCCNC(=O)CCOCCOCCOCCOCCOCCOCCOCCOCCNC(=O)CCCC[C@@H]1SC[C@@H]2NC(=O)N[C@@H]21)C(=O)O)C(=O)O
TEST_SYSTEM: Glutamate carboxypeptidase 2 (Homo sapiens, UniProt Q04609)
TEST_RESULT: 8.19
--
MOLECULAR_STRING: O=C(O)CC[C@H](NC(=O)N[C@@H](CCCCNC(=O)CCOCCOCCOCCOCCOCCOCCOCCOCCOCCOCCOCCOCCNC(=O)CCCC[C@@H]1SC[C@@H]2NC(=O)N[C@@H]21)C(=O)O)C(=O)O
TEST_SYSTEM: Glutamate carboxypeptidase 2 (Homo sapiens, UniProt Q04609)
TEST_RESULT: 7.98

a: CC(=O)NCCOc1ccccc1NC(=O)NCCCC[C@H](NC(=O)N[C@@H](CCC(=O)O)C(=O)O)C(=O)O
b: CC(=O)NCCOc1ccccc1CC(=O)NCCCC[C@H](NC(=O)N[C@@H](CCC(=O)O)C(=O)O)C(=O)O
[in] For the pair a and b , which member has the lower pKi number? I would appreciate it if you answered with the label of your choice.
[out] b
(b: 8.80, a: 9.42)

---

- TEST_SYSTEM: Glutamate carboxypeptidase 2 (Homo sapiens, UniProt Q04609)
- PROCEDURE_DETAILS: Inhibition of human recombinant N-terminal Avi-tagged glutamate carboxypeptidase 2 extracellular domain (44 to 750 amino acids) using pteroyl-di-L-glutamate substrate by HPLC method
VALUE_KIND: Ki (nM)

# count of solved cases: 2
MOLECULAR_STRING: CC(=O)NCCOc1cc(Br)ccc1C(=O)NCCCC[C@H](NC(=O)N[C@@H](CCC(=O)O)C(=O)O)C(=O)O
Ki [nM]: 0.268

MOLECULAR_STRING: CC(=O)NCCOc1cc(Br)ccc1NC(=O)NCCCC[C@H](NC(=O)N[C@@H](CCC(=O)O)C(=O)O)C(=O)O
Ki [nM]: 0.221

P: CC(=O)NCCOc1cc(F)ccc1C(=O)NCCCC[C@H](NC(=O)N[C@@H](CCC(=O)O)C(=O)O)C(=O)O
Q: O=C(O)CC[C@H](NC(=O)N[C@@H](CCCCNC(=O)Nc1ccccc1OCCNC(=O)CCOCCOCCOCCOCCOCCOCCOCCOCCOCCOCCOCCOCCNC(=O)CCCC[C@@H]1SC[C@@H]2NC(=O)N[C@@H]21)C(=O)O)C(=O)O
[in] For the pair P and Q , which member has the lower Ki number? I would appreciate it if you answered with the label of your choice.
[out] P

A: CC(=O)N(CCCC[C@H](NC(=O)N[C@@H](CCC(=O)O)C(=O)O)C(=O)O)Cc1ccccc1
B: O=C(O)CC[C@H](NC(=O)N[C@@H](CCCCNC(=O)Nc1ccc(Br)cc1OCCNC(=O)CCOCCOCCOCCOCCOCCOCCOCCOCCOCCOCCOCCOCCNC(=O)CCCC[C@@H]1SC[C@@H]2NC(=O)N[C@@H]21)C(=O)O)C(=O)O
C: CC(=O)NCCOc1ccccc1C(=O)NCCCC[C@H](NC(=O)N[C@@H](CCC(=O)O)C(=O)O)C(=O)O
D: O=C(O)CC[C@H](NC(=O)N[C@@H](CCCCNC(=O)c1ccccc1OCCNC(=O)CCOCCOCCOCCOCCOCCOCCOCCOCCOCCOCCOCCOCCNC(=O)CCCC[C@@H]1SC[C@@H]2NC(=O)N[C@@H]21)C(=O)O)C(=O)O
E: CC(=O)NCCCC[C@H](NC(=O)N[C@@H](CCC(=O)O)C(=O)O)C(=O)O
[in] List the 5 entries from lowest Ki to highest Ki value. Respond with an ordered listing of the labels, as requested.
[out] E, A, C, B, D

P: O=C(O)CC[C@H](NC(=O)N[C@@H](CCCCN(Cc1ccccc1)C(=O)CCOCCOCCOCCOCCOCCOCCOCCOCCOCCOCCOCCOCCNC(=O)CCCC[C@@H]1SC[C@@H]2NC(=O)N[C@@H]21)C(=O)O)C(=O)O
Q: CC(=O)NCCOc1cc(Cl)ccc1C(=O)NCCCC[C@H](NC(=O)N[C@@H](CCC(=O)O)C(=O)O)C(=O)O
[in] Param pair: P , Q . Output: the one whose Ki is numerically greater. I would appreciate it if you answered with the label of your choice.
[out] P

A: CC(=O)N(CCCC[C@H](NC(=O)N[C@@H](CCC(=O)O)C(=O)O)C(=O)O)Cc1ccc(Br)cc1
B: NCCCC[C@H](NC(=O)N[C@@H](CCC(=O)O)C(=O)O)C(=O)O
C: CC(=O)NCCOc1cc(I)ccc1C(=O)NCCCC[C@H](NC(=O)N[C@@H](CCC(=O)O)C(=O)O)C(=O)O
[in] List the 3 entries from lowest Ki to highest Ki value. Respond with an ordered listing of the labels, as requested.
[out] A, C, B
